test system: WM793B (Melanoma); test: Bliss excess, mean over the matrix (fraction); higher = more synergy
property-name: Bliss excess
Lab note: jot down the number only; don't add units.

molecule	Bliss excess
CN(C)CCCOc1ccc(-c2ccc3ncc4c(c3c2)n(C2CCOCC2)c(=O)n4C)cn1 [AZD0156] + C=CCn1c(=O)c2cnc(Nc3ccc(N4CCN(C)CC4)cc3)nc2n1-c1cccc(C(C)(C)O)n1 [AZD1775] (first compound max 1 µM, partner max 1 µM)	-0.0081

Ask: Fill blank: measured Bliss excess of the molecule NC1(C(=O)N[C@@H](CCO)c2ccc(Cl)cc2)CCN(c2ncnc3[nH]ccc23)CC1 [Capivasertib] + C[C@@H]1COCCN1C2=NC(=NC(=C2)C3(CC3)[S@](=N)(=O)C)C4=C5C=CNC5=NC=C4 [AZD6738] (first compound max 10 µM, 7x7, partner max 10 µM) is ____.
Result: -0.0919

====

system: NCI-H2342 (Lung Adenocarcinoma); test: combination Emax (second highest fraction inhibited in the dose matrix, 72 h); higher = more inhibition; extreme values may be limits of the assay
combination Emax overview
Lab note: jot down the number only; don't add units.

Ask: Fill blank: measured combination Emax of the compound CN(CCO)CC[C@H](CSc1ccccc1)Nc1ccc(S(=O)(=O)NC(=O)c2ccc(N3CCC([C@@H](O)c4ccccc4-c4ccc(Cl)cc4)CC3)cc2)cc1S(=O)(=O)C(F)(F)F [AZD4320] + C[C@@H](Nc1cc(F)cc(F)c1)c1cc(C(=O)N(C)C)cc2c(=O)cc(N3CCOCC3)oc12 [AZD8186] (first compound max 1 µM, 7x7, partner max 3 µM) is ____.
Result: 0.443

====

test system: VAL (B-Cell Non-Hodgkin's Lymphoma); test: Bliss excess, mean over the matrix (fraction); higher = more synergy
property-name: Bliss excess
Lab note: jot down the number only; don't add units.

Ask: Fill blank: measured Bliss excess of the compound CC1(C)CCC(CN2CCN(c3ccc(C(=O)NS(=O)(=O)c4ccc(NCC5CCOCC5)c([N+](=O)[O-])c4)c(Oc4cnc5[nH]ccc5c4)c3)CC2)=C(c2ccc(Cl)cc2)C1 [Venetoclax] + CCN(CCO)CCCOc1ccc2c(Nc3cc(CC(=O)Nc4cccc(F)c4)[nH]n3)ncnc2c1 [AZD2811] (first compound max 1 µM, 7x7, partner max 1 µM) is ____.
Result: 0.0158

Ask: Also check COc1nnc2ccc(N3CCC(c4ccc(OCCN5CCN(C)C(=O)[C@H]5C)cc4)CC3)nn12 [AZD5153] + CCN(CCO)CCCOc1ccc2c(Nc3cc(CC(=O)Nc4cccc(F)c4)[nH]n3)ncnc2c1 [AZD2811] (first compound max 1 µM, 7x7, partner max 1 µM)
Result: -0.0945

Ask: Also check CC1(C)CCC(CN2CCN(c3ccc(C(=O)NS(=O)(=O)c4ccc(NCC5CCOCC5)c([N+](=O)[O-])c4)c(Oc4cnc5[nH]ccc5c4)c3)CC2)=C(c2ccc(Cl)cc2)C1 [Venetoclax] + Cn1cnc2c(F)c(Nc3ccc(Br)cc3Cl)c(C(=O)NOCCO)cc21 [Selumetinib] (first compound max 1 µM, 7x7, partner max 3 µM)
Result: -0.0069

Ask: Also check C[C@@H]1COCCN1c1cc(C2([S@](C)(=N)=O)CC2)nc(-c2ccnc3[nH]ccc23)n1 [AZD6738] + C1CC(C1)(C(=O)[O-])C(=O)[O-].N.N.[Pt+2] [Carboplatin] (first compound max 10 µM, 7x7, partner max 10 µM)
Result: -0.0465

====

test system: HSC-39 (Gastric Carcinoma); assay: Bliss excess, mean over the matrix (fraction); higher = more synergy
property-name: Bliss excess
Lab note: jot down the number only; don't add units.

Below: 2 molecules and their reported Bliss excess.
molecule	Bliss excess
COc1nnc2ccc(N3CCC(c4ccc(OCCN5CCN(C)C(=O)[C@H]5C)cc4)CC3)nn12 [AZD5153] + CC1(C)CCC(CN2CCN(c3ccc(C(=O)NS(=O)(=O)c4ccc(NCC5CCOCC5)c([N+](=O)[O-])c4)c(Oc4cnc5[nH]ccc5c4)c3)CC2)=C(c2ccc(Cl)cc2)C1 [Venetoclax] (first compound max 1 µM, 7x7, partner max 1 µM)	0.0439
C=CCn1c(=O)c2cnc(Nc3ccc(N4CCN(C)CC4)cc3)nc2n1-c1cccc(C(C)(C)O)n1 [AZD1775] + Nc1ccn([C@@H]2O[C@H](CO)[C@@H](O)C2(F)F)c(=O)n1 [Gemcitabine] (first compound max 1 µM, partner max 0.3 µM)	0.0379

For the next question, use this molecule.
Ask: Fill blank: measured Bliss excess of the molecule Cc1c2c(nn1C)CSCc1cc(n(C)n1)CSc1cc(c3ccccc3c1)OCCCc1c(C(=O)O)n(C)c3c-2c(Cl)ccc13 [AZD5991] + CC1(C)CCC(CN2CCN(c3ccc(C(=O)NS(=O)(=O)c4ccc(NCC5CCOCC5)c([N+](=O)[O-])c4)c(Oc4cnc5[nH]ccc5c4)c3)CC2)=C(c2ccc(Cl)cc2)C1 [Venetoclax] (first compound max 1 µM, 7x7, partner max 1 µM) is ____.
Result: 0.0266

====

system: MKN45 (Gastric Carcinoma); experiment: combination Emax (second highest fraction inhibited in the dose matrix, 72 h); higher = more inhibition; extreme values may be limits of the assay
combination Emax overview

compound	combination Emax
CC1(C)CCC(CN2CCN(c3ccc(C(=O)NS(=O)(=O)c4ccc(NCC5CCOCC5)c([N+](=O)[O-])c4)c(Oc4cnc5[nH]ccc5c4)c3)CC2)=C(c2ccc(Cl)cc2)C1 [Venetoclax] + CN(C)CCCOc1ccc(-c2ccc3ncc4c(c3c2)n(C2CCOCC2)c(=O)n4C)cn1 [AZD0156] (first compound max 1 µM, 7x7, partner max 1 µM)	0.688

For the next question, use this compound.
Ask: Fill blank: measured combination Emax of the compound COc1cccc(OCCCN)c1-c1cc(Nc2cnc(C#N)cn2)n[nH]1 [Prexasertib] + CCc1c2c(nc3ccc(O)cc13)-c1cc3c(c(=O)n1C2)COC(=O)[C@]3(O)CC [SN-38] (first compound max 1 µM, 7x7, partner max 0.3 µM) is ____.
Result: 0.853

====

Bliss excess overview
tested on: TE-8 (Esophageal Squamous Cell Carcinoma); test: Bliss excess, mean over the matrix (fraction); higher = more synergy
Lab note: jot down the number only; don't add units.

Ask: GET /values?readout=Bliss excess&system=TE-8 (Esophageal Squamous Cell Carcinoma)&item= C[C@@H](Nc1cc(F)cc(F)c1)c1cc(C(=O)N(C)C)cc2c(=O)cc(N3CCOCC3)oc12 [AZD8186] + C1CN(CCC1(C(=O)N[C@@H](CCO)C2=CC=C(C=C2)Cl)N)C3=NC=NC4=C3C=CN4 [AZD5363] (first compound max 10 µM, 7x7, partner max 10 µM)
Result: -0.0543

Ask: Also check CC1(C)CCC(CN2CCN(c3ccc(C(=O)NS(=O)(=O)c4ccc(NCC5CCOCC5)c([N+](=O)[O-])c4)c(Oc4cnc5[nH]ccc5c4)c3)CC2)=C(c2ccc(Cl)cc2)C1 [Venetoclax] + Cn1cnc2c(F)c(Nc3ccc(Br)cc3Cl)c(C(=O)NOCCO)cc21 [Selumetinib] (first compound max 1 µM, 7x7, partner max 3 µM)
Result: -0.0282

Ask: Also check C[C@@H]1COCCN1c1cc(C2([S@](C)(=N)=O)CC2)nc(-c2ccnc3[nH]ccc23)n1 [AZD6738] + C1CC(C1)(C(=O)[O-])C(=O)[O-].N.N.[Pt+2] [Carboplatin] (first compound max 10 µM, 7x7, partner max 10 µM)
Result: -0.0806

====

tested on: KE-37 (T-Lymphoblastic Leukemia); test: combination Emax (second highest fraction inhibited in the dose matrix, 72 h); higher = more inhibition; extreme values may be limits of the assay
combination Emax overview
Lab note: jot down the number only; don't add units.

compound	combination Emax
CC1(C)CCC(CN2CCN(c3ccc(C(=O)NS(=O)(=O)c4ccc(NCC5CCOCC5)c([N+](=O)[O-])c4)c(Oc4cnc5[nH]ccc5c4)c3)CC2)=C(c2ccc(Cl)cc2)C1 [Venetoclax] + C[C@@H]1COCCN1C2=NC(=NC(=C2)C3(CC3)[S@](=N)(=O)C)C4=C5C=CNC5=NC=C4 [AZD6738] (first compound max 1 µM, 7x7, partner max 10 µM)	1
Cn1cnc2c(F)c(Nc3ccc(Br)cc3Cl)c(C(=O)NOCCO)cc21 [Selumetinib] + CCN(CCO)CCCOc1ccc2c(Nc3cc(CC(=O)Nc4cccc(F)c4)[nH]n3)ncnc2c1 [AZD2811] (first compound max 10 µM, 7x7, partner max 1 µM)	1
Cc1c2c(nn1C)CSCc1cc(n(C)n1)CSc1cc(c3ccccc3c1)OCCCc1c(C(=O)O)n(C)c3c-2c(Cl)ccc13 [AZD5991] + C[C@@H](Nc1cc(F)cc(F)c1)c1cc(C(=O)N(C)C)cc2c(=O)cc(N3CCOCC3)oc12 [AZD8186] (first compound max 1 µM, 7x7, partner max 3 µM)	0.919
CN(CCO)CC[C@H](CSc1ccccc1)Nc1ccc(S(=O)(=O)NC(=O)c2ccc(N3CCC([C@@H](O)c4ccccc4-c4ccc(Cl)cc4)CC3)cc2)cc1S(=O)(=O)C(F)(F)F [AZD4320] + Cc1cc2ncnn2cc1Nc1ncc2c(n1)n(C1CCOCC1)c(=O)n2C [AZD7648] (first compound max 1 µM, 7x7, partner max 10 µM)	1
COc1cc2ncnc(Nc3ccc(F)c(Cl)c3)c2cc1OCCCN1CCOCC1 [Gefitinib] + CC(C)n1c(=O)n(C)c2cnc3cc(F)c(-c4ccc(OCCCN5CCCCC5)nc4)cc3c21 [AZD1390] (first compound max 10 µM, 7x7, partner max 0.3 µM)	0.357

Ask: Fill blank: measured combination Emax of the compound C=CCn1c(=O)c2cnc(Nc3ccc(N4CCN(C)CC4)cc3)nc2n1-c1cccc(C(C)(C)O)n1 [AZD1775] + O=C(c1cc(Cc2n[nH]c(=O)c3ccccc23)ccc1F)N1CCN(C(=O)C2CC2)CC1 [Olaparib] (first compound max 1 µM, partner max 10 µM) is ____.
Result: 1

Ask: Also check NC1(C(=O)N[C@@H](CCO)c2ccc(Cl)cc2)CCN(c2ncnc3[nH]ccc23)CC1 [Capivasertib] + CCN(CCO)CCCOc1ccc2c(Nc3cc(CC(=O)Nc4cccc(F)c4)[nH]n3)ncnc2c1 [AZD2811] (first compound max 10 µM, 7x7, partner max 1 µM)
Result: 1
